test_details: Pharmacokinetics IV and PO in CD-1 mice, plasma
Format: in vivo
condition: male, CD-1; mouse plasma; intravenous administration, 2 mg/kg; read-out: Vss
value_kind: Vd (L/kg)
Note: unit L/kg is implicit; provide only the numeric part.

Looking up C=CS(=O)(=O)N1CCN(c2c(C(=O)N3CCN(S(C)(=O)=O)CC3)cnc3ccc(F)cc23)CC1 [Compound C-99] , I see its Vd listed as 2.7

----------
test_details: IP pharmacokinetics and tissue distribution of C-86 in C57BL/6J mice
Assay type: in vivo, mouse
condition: male, C57BL/6J, mouse; mice; IP, 30 mg/kg; pancreas
value_kind: Cmax (µg/mL)
Note: unit µg/mL is implicit; provide only the numeric part.

Looking up CS(=O)(=O)N1CCN(C(=O)c2cnc3ccc(F)cc3c2N2CCC(C#N)(c3ccccc3)CC2)CC1 , I see its Cmax listed as 149
